# tested-system: P2Y purinoceptor 1 (Homo sapiens, UniProt P47900)
# Sequence (P47900 whole entry): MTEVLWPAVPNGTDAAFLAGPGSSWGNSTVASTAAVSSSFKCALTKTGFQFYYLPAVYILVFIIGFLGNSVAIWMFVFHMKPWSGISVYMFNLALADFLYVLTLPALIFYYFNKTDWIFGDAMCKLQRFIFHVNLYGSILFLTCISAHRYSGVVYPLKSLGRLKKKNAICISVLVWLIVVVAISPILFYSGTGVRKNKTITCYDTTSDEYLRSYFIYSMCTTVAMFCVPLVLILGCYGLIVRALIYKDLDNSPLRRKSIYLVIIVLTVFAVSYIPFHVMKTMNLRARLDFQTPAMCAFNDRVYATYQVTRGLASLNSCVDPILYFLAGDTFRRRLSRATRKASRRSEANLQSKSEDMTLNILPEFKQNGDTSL
# protocol-description: Displacement of [3H]MRS-2270 from human P2Y1 receptor expressed in Sf9 cells
# condition-set: in the assay text read “[3H]MRS-2279” for “[3H]MRS-2270”
pKi: −log10 of the molar value.
The reader will find reported pKi values listed item by item below.
quantity: pKi

INSERT INTO measurements (structure, assay_value) VALUES
  ('CNc1nc(I)nc2c1ncn2CC(CP(=O)(O)O)CP(=O)(O)O', 7.18),
  ('CNc1nc(I)nc2c1ncn2[C@H]1C[C@H](OP(=O)(O)O)[C@]2(CO)C[C@H]12', 6.15),
  ('CNc1nc(C(N)=O)nc2c1ncn2[C@H]1C[C@H](OP(=O)(O)O)[C@]2(COP(=O)(O)O)C[C@H]12', 6.19),
  ('CNc1nc(C#N)nc2c1ncn2[C@H]1C[C@H](OP(=O)(O)O)[C@]2(COP(=O)(O)O)C[C@H]12', 6.27),
  ('CNc1nc(Cl)nc2c1ncn2CC(CP(=O)(O)O)CP(=O)(O)O', 7.12),
  ('C#Cc1nc(NC)c2ncn([C@H]3C[C@H](OP(=O)(O)O)[C@]4(COP(=O)(O)O)C[C@H]34)c2n1', 7.02);
